- test-target: T1, integrin αvβ3 (human, UniProt P06756)
- T1 chain 1: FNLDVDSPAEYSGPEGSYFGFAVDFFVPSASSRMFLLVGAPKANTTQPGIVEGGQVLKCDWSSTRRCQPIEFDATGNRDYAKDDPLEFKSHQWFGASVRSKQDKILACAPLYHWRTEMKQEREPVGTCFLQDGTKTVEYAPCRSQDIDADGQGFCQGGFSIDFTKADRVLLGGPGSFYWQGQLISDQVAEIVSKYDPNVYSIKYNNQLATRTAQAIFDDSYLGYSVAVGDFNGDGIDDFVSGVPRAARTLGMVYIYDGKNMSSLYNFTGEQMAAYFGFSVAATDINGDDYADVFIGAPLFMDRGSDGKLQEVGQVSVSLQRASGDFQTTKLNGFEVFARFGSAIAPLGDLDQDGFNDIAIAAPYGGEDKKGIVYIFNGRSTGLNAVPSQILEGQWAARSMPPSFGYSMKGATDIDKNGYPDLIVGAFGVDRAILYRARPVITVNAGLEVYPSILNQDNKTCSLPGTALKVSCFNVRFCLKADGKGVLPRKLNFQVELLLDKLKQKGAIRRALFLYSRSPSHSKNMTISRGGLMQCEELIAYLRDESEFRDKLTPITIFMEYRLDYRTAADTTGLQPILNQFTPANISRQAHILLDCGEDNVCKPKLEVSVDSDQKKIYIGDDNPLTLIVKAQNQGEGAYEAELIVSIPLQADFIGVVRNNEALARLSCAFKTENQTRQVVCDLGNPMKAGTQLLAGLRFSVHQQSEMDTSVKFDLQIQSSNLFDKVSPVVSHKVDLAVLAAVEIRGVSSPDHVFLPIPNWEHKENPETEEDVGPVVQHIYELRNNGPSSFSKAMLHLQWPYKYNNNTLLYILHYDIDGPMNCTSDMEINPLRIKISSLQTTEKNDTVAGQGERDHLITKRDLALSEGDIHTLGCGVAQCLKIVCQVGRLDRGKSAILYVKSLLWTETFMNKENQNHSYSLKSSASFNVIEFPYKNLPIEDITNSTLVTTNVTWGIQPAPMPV
- T1 chain 2: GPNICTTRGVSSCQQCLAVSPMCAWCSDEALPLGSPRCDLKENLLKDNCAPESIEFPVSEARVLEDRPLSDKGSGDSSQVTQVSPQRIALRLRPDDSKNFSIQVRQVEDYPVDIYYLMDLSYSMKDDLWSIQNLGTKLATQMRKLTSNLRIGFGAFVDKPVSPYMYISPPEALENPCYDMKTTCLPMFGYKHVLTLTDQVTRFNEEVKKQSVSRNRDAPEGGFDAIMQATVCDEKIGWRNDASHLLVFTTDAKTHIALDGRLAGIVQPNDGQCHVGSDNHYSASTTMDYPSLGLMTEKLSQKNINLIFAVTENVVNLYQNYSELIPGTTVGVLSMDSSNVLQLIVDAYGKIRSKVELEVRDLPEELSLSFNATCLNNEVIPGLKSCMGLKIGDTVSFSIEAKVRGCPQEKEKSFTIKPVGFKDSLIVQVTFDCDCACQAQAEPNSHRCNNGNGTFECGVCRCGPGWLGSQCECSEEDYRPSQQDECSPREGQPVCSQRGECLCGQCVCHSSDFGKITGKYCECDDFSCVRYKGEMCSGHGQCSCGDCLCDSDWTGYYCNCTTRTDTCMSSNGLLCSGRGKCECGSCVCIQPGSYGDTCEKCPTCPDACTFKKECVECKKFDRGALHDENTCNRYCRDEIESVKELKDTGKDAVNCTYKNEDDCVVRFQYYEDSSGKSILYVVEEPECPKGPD
- method: competition
pIC50: −log10 of the molar value. [ ]: non-standard residue; d: D form. NMeK = CN[C@@H](CCCCN)C(=O)O
endpoint-name: pIC50

binder="cyclo(RGDL[dP]PGL) [Compound 2]" obs_value="< 6.00"
binder="cyclo(RGDL[dP][NMeK]GL) (SMILES CC(C)C[C@@H]1NC(=O)CNC(=O)[C@H](CCCCN)N(C)C(=O)[C@H]2CCCN2C(=O)[C@H](CC(C)C)NC(=O)[C@H](CC(=O)O)NC(=O)CNC(=O)[C@H](CCCNC(=N)N)NC1=O) [Compound 8]" obs_value="< 6.00"
binder="cyclo(RGDL[dP][NMeK](Ac)GL) [Compound 9]" obs_value=6.37
